src = patent US10919943B2

system: HAB1; assay: Yeast two hybrid of pBD-PYR1 site saturation mutants with pACT-HAB1 on 10 μM ABA, β-galactosidase staining; assay type: cell-based, Arabidopsis; set-up: key: x: Mutations in PYR1 that disrupt ABA-induced binding to PYR1 to HAB1; settings: S. cerevisiae Y190, 10 μM ABA; dead = lack of visible staining in comparison to wild type control
readout_label: Mutations in PYR1 that disrupt ABA-induced binding to PYR1 to HAB1

- molecule: "D155K: PYR1 mutant (protein, UniProt O49686 1-191, looked up, variant D155K) Abscisic acid receptor PYR1: MPSELTPEERSELKNSIAEFHTYQLDPGSCSSLHAQRIHAPPELVWSIVRRFDKPQTYKHFIKSCSVEQNFEMRVGCTRDVIVISGLPANTSTERLDILDDERRVTGFSIIGGEHRLTNYKSVTTVHRFEKENRIWTVVLESYVVDMPEGNSEDKTRMFADTVVKLNLQKLATVAEAMARNSGDGSGSQVT"
  value: "x"
- molecule: "P148C: PYR1 mutant (protein, UniProt O49686 1-191, looked up, variant P148C) Abscisic acid receptor PYR1: MPSELTPEERSELKNSIAEFHTYQLDPGSCSSLHAQRIHAPPELVWSIVRRFDKPQTYKHFIKSCSVEQNFEMRVGCTRDVIVISGLPANTSTERLDILDDERRVTGFSIIGGEHRLTNYKSVTTVHRFEKENRIWTVVLESYVVDMCEGNSEDDTRMFADTVVKLNLQKLATVAEAMARNSGDGSGSQVT"
  value: "x"
- molecule: "L87C: PYR1 mutant (protein, UniProt O49686 1-191, looked up, variant L87C) Abscisic acid receptor PYR1: MPSELTPEERSELKNSIAEFHTYQLDPGSCSSLHAQRIHAPPELVWSIVRRFDKPQTYKHFIKSCSVEQNFEMRVGCTRDVIVISGCPANTSTERLDILDDERRVTGFSIIGGEHRLTNYKSVTTVHRFEKENRIWTVVLESYVVDMPEGNSEDDTRMFADTVVKLNLQKLATVAEAMARNSGDGSGSQVT"
  value: "x"
